Each recorded value in this set is attributed to paper PMC7248705.

protocol.summary: Enzymatic kinetics in vitro, rat plasma
Format: in vitro ADME
particulars: SD, 37 °C, 30 min, 5–200 μM Cbz-dFdC, read-out: Clint, disappearance of Cbz-dFdC
endpoint: microsomal CLint (µL/min/mg)

O=C(Nc1ccn([C@@H]2O[C@H](CO)[C@@H](O)C2(F)F)c(=O)n1)OCc1ccccc1 [Cbz-dFdC, 4-N-carbobenzoxy-gemcitabine]    5380

====

protocol.summary: Enzymatic kinetics in vitro, rat liver S9
Assay type: in vitro ADME
particulars: SD, 37 °C, 5–200 μM Cbz-dFdC, read-out: Km, disappearance of Cbz-dFdC
endpoint: Km at 30 min (µM)

O=C(Nc1ccn([C@@H]2O[C@H](CO)[C@@H](O)C2(F)F)c(=O)n1)OCc1ccccc1    96.3
